Value source: ChEMBL document CHEMBL3045999

- Assay Method Text: Cytotoxicity against Homo sapiens (human) erythrocytes assessed as hemolytic activity at 15.62 uM after 1 hr
- Format: cell-based, Erythrocyte
- Condition Summary: read-out: Activity

# Smi, Unit Annotation, hemolysis at 1 h, 15.62 µM
rows = [
    ("CCCCCCCCCCn1ccc(=N)cc1", "%", 0.57),
]

###

Overview of recorded zone of inhibition at 500 µg/disc for various compounds
- Tested on: Nakaseomyces glabratus
- Assay Method Text: Antifungal activity against Candida glabrata NCIM 3236 at 500 ug/disk after 24 hr by disk diffusion method
- Assay type: functional
- Condition Summary: NCIM 3236, 24 h, read-out: IZ
Measurement Kind: zone of inhibition at 500 µg/disc

# Smi, Reported Measurement
measured = [
    ("CCCCCCn1ccc(=N)cc1", "10 mm"),
    ("CCCCCCCCn1ccc(=N)cc1", "22 mm"),
    ("CCCCCCCCCCCCCC[n+]1ccc(N)cc1", "8.5 mm"),
]
